Ref: paper PMC3987113

Test system: Cyp2b10
test_method_notes: Dose-response modeling of microarray data
Format: in vivo, C57BL/6 mice
experimental_context: C57BL/6, mouse, liver, oral
metric_name: ED50 at 24 h

Form field: reported ED50 at 24 h of `Clc1cc(Cl)c(-c2cc(Cl)c(Cl)cc2Cl)cc1Cl` 38.1 mg/kg
